Where do these numbers come from? They come from PubChem BioAssay (NCI).

System: K-562 leukemia
assay-overview: NCI-60 one-dose screen, 48 h (100 = growth as untreated, 0 = no growth, -100 = all killed)
condition-description: 10 µM unless noted
The panel holds about 83,000 compounds, 20% with a hit somewhere; the sample as a whole holds those more often.
Hi! Could you tag entries with growth below 20% as true, and those at or above as false? Much appreciated.

Below, 5 compounds whose answers are already recorded.
compound	class-name
CCN1CCN(C(=O)[C@]23CCC(C)(C)C[C@H]2C2=CC[C@@H]4[C@@]5(C)CC/C(=N/O)C(C)(C)[C@@H]5CC[C@@]4(C)[C@]2(C)CC3)CC1	false
C=C(C)[C@@H]1CC[C@]2(C)[C@H](CC=C3[C@@H]4CC(C)(C)CC[C@]4(C(=O)OC)CC[C@]32C)[C@@]1(C)CC/C(N)=N/O	false
CC(=O)Oc1ccccc1C(=O)/C=C/c1cccc([N+](=O)[O-])c1	false
C/C(=C(/c1ccccc1)c1ccc(N2C(=O)c3cccc4c(NCc5ccccc5)ccc(c34)C2=O)cc1)c1ccccc1	false
CSc1ccc(N(C)c2nc(C)nc3c2CCC3)cc1	true

Ask: Dear reviewer, please state whether `CN1CCN(c2ccc3nc(-c4[nH]ncc4Nc4ncnc5[nH]ccc45)[nH]c3c2)CC1` has growth strictly beneath 20%.
Reply: true

Ask: Dear reviewer, please state whether `COc1cccc(-c2nn(-c3ccccc3)cc2-c2ccnc(NCCCNS(=O)(=O)c3ccc(Cl)cc3)c2)c1` has growth strictly beneath 20%.
Reply: true

Ask: Dear reviewer, please state whether `C=C1C(=O)O[C@H]2[C@H]1CC/C(COC(=O)NCc1c[nH]c3ccccc13)=C\CC[C@@]1(C)O[C@@H]21` has growth strictly beneath 20%.
Reply: true

Ask: Dear reviewer, please state whether `c1csc(-c2nc(-c3cc4ccccc4c(N4CCOCC4)n3)cs2)c1` has growth strictly beneath 20%.
Reply: false

Ask: Dear reviewer, please state whether `Cc1cccc(C)c1NCc1nc(-c2ccccc2)n[nH]1` has growth strictly beneath 20%.
Reply: false

Ask: Dear reviewer, please state whether N#CC1=C(N)Oc2ccc3ccccc3c2C1c1ccccc1Cl (centres undefined) has growth strictly beneath 20%.
Reply: true

Ask: Dear reviewer, please state whether `Cn1cc(-c2nc(-c3cn(C)c4ncccc34)cs2)c2cc(F)ccc21` has growth strictly beneath 20%.
Reply: true

Ask: Dear reviewer, please state whether `O=C1C(=O)c2ccccc2C(O)=C1CCCc1ccc(C2CCCCC2)cc1` has growth strictly beneath 20%.
Reply: false

Ask: Dear reviewer, please state whether `COc1ccc2c(c1)c(-c1nc(-c3c[nH]c4ncccc34)cs1)cn2CCCN1CCCCC1` has growth strictly beneath 20%.
Reply: true

Ask: Dear reviewer, please state whether `CC(=O)Cc1nsc(NC(=O)c2ccoc2COc2ccccc2)n1` has growth strictly beneath 20%.
Reply: false

Ask: Dear reviewer, please state whether `COc1ccccc1CNc1nc(N)nc2[nH]c3ccc(O)cc3c12` has growth strictly beneath 20%.
Reply: true

Ask: Dear reviewer, please state whether `CC(=O)n1c(/C(C#N)=C/c2ccc(N(C)C)cc2)cc2ccccc21` has growth strictly beneath 20%.
Reply: true

Ask: Dear reviewer, please state whether `Cc1ccc(-c2nc([P+](c3ccccc3)(c3ccccc3)c3ccccc3)c(N3C[C@H]4C[C@H](C3)c3cccc(=O)n3C4)o2)cc1` has growth strictly beneath 20%.
Reply: false

Ask: Dear reviewer, please state whether `S=c1[nH]nc2ccccn12` has growth strictly beneath 20%.
Reply: false

* * *

Test system: KM12 colon
assay-overview: NCI-60 one-dose screen, 48 h (100 = growth as untreated, 0 = no growth, -100 = all killed)
condition-description: 10 µM unless noted
About 83,000 compounds went through this panel and 20% of them were active in at least one assay; those are over-represented in the sample as a whole.
A collection of compounds and their measured growth
The answer is to be given in %; state only the numeric part.

The examples below pair each entry with its known result.
molecular-string	result-value
CC1(C)C=CC[C@]2(C)[C@H]3CC[C@@H]4[C@H]5[C@H](C(=O)/C=C/c6cccnc6)CC[C@]5(CO)CC[C@@]4(C)[C@]3(C)CC[C@@H]12	-80.7
C/C(=N\Nc1cc(C)c2cc(C)ccc2n1)c1ccccn1	-46.9
N=c1ccc2nc3c(cc(N)c4ccccc43)oc-2c1	-94.9
CC1(C)CC[C@]2(CO)CC[C@]3(C)C(=CC[C@@H]4[C@@]5(C)CC[C@H](NCO)C(C)(C)[C@@H]5CC[C@]43C)[C@@H]2C1	-80.7
N=C(N)c1ccc(-c2ccc(-c3cc(F)cc(F)c3)o2)nc1	91.5

response.value for `C=C(C)[C@@H]1CC[C@]2(C=NCCCNCCCCNCCCN)CC[C@]3(C)[C@H](CC[C@@H]4[C@@]5(C)CCCNC(C)(C)[C@@H]5CC[C@]43C)[C@@H]12` (field: growth) = 98.2

response.value for `C=C(C)[C@@H]1CC[C@]2(C(=O)N3CCN(CC)CC3)CC[C@]3(C)[C@H](CC[C@@H]4[C@@](C)(CCC(=O)N5CCN(CC)CC5)[C@H](C(=C)C)CC[C@]43C)[C@@H]12` (field: growth) = 54.2

* * *

Tested on: UACC-62 melanoma
assay-overview: NCI-60 one-dose screen, 48 h (100 = growth as untreated, 0 = no growth, -100 = all killed)
condition-description: 10 µM unless noted
The panel holds about 83,000 compounds, 20% with a hit somewhere; the sample as a whole holds those more often. Calls of active or inactive are those of the source. Rule for the calls: active = growth percent below 10; inactive = the rest.
A collection of compounds and their measured growth

The examples below pair each entry with its known result.
molecular-string	result-value
COc1cc(/C=C/c2cc(/C=C/c3ccc(O)c(OC)c3)n(-c3ccccc3)c(=O)n2)ccc1O	69.9% (inactive)
CC(C)=CCC[C@](C)(O)[C@H]1CC[C@]2(C)[C@@H]1CC[C@@H]1[C@@]3(C)C/C(=C/c4cccc([N+](=O)[O-])c4)C(=O)C(C)(C)[C@@H]3CC[C@]12C	78.1% (inactive)
O=C1/C(=C\C(Cl)=C/c2ccc([N+](=O)[O-])cc2)SC(=S)N1CCc1ccc(O)cc1	-30.8% (active)
Cc1ccc(Nc2c(C(N)=O)cnc3ccc(S(=O)(=O)Nc4cc(C)on4)cc23)cc1	91.8% (inactive)
N=c1c(S(=O)(=O)c2ccccc2)cc2c(=O)n3ccccc3nc2n1C1CCCC1	80.2% (inactive)

Field growth (UACC-62 melanoma), entry `COc1ccc(-c2c(-c3nc4ccc(N5CCOCC5)cc4[nH]3)[nH]c(C)c2C(C)=O)cc1` : 15.7% (inactive)

Field growth (UACC-62 melanoma), entry `Cc1ccccc1-c1nc(C(Cl)Cl)nc2cc(-c3ccccc3)nn12` : 74.4% (inactive)

Field growth (UACC-62 melanoma), entry `C=C(C)[C@@H]1CC[C@]2(C=NCCCNCCCCNCCCN)CC[C@]3(C)[C@H](CC[C@@H]4[C@@]5(C)CCCNC(C)(C)[C@@H]5CC[C@]43C)[C@@H]12` : 100% (inactive)

* * *

System: NCI-H322M lung
assay-overview: NCI-60 one-dose screen, 48 h
condition-description: 10 µM unless noted
Protocol: Growth inhibition of the NCI-H322M human Non-Small Cell Lung tumor cell line is measured as a screen for anti-cancer activity. Cells are grown in 96 well plates and exposed to the test compound for 48 hours. Compounds are tested at a single concentration, which is 10^-5 M for most compounds. The reported endpoint is percent growth (GI% or GIPRCNT), where numbers from 0 - 100% represent growth inhibition, and numbers from -100% - 0 represent cell death. […]
About 83,000 compounds went through this panel and 20% of them were active in at least one assay; those are over-represented in the sample as a whole. Active and inactive are the calls of the source. The calls were made as follows: active = growth percent below 10; inactive = the rest.
Field 'call' accepts active, inactive

molecular-string	class-name
COc1cc(/C=C/c2cc(/C=C/c3ccc(O)c(OC)c3)n(-c3ccc(Cl)cc3)c(=O)n2)ccc1O	inactive

Below: the item to evaluate.
Ask: Recorded test call requested for `COc1cnc2c(c1)C(=O)c1c-2n(CCCNC(C)C)c(=O)c2cc([N+](=O)[O-])ccc12`
Reply: active

* * *

System: NCI-H322M lung
assay-overview: NCI-60 one-dose screen, 48 h (100 = growth as untreated, 0 = no growth, -100 = all killed)
condition-description: 10 µM unless noted
Compounds without any hit were thinned out: in the full panel of roughly 83,000, 20% have a hit.
A collection of molecules and their measured growth
The answer is to be given in %; state only the numeric part.

molecule	units-text	growth
CC(C)(C)c1cc(-n2c(-c3ccc(Cl)cc3)nc3cc(C(=O)Nc4ccc(Cl)cc4)ccc32)n[nH]1	%	82

response.value for `CC(=O)c1c(C)[nH]c(-c2nc3ccc(N4CCN(C)CC4)cc3[nH]2)c1-c1ccc2c(c1)OCCO2` (field: growth) = 45.8

response.value for `N#C/C(=C\c1ccc(-c2cccc(C(F)(F)F)c2)o1)c1nc(-c2ccco2)cs1` (field: growth) = 89.2

response.value for `Cc1cc(N(CCCNc2ccnc3cc(Cl)ccc23)Cc2ccco2)nc(N2CCN(C)CC2)n1` (field: growth) = 64.2

response.value for `CC(=O)c1c(C)[nH]c(-c2nc3ccc(N4CCN(C)CC4)cc3[nH]2)c1-c1ccc(N(C)C)cc1` (field: growth) = 40.6

response.value for CCOC(=O)C1OC1(c1ccccc1)c1ccccc1 (centres undefined) (field: growth) = 120

response.value for `C=C(C)[C@@H]1CC[C@]2(C)[C@H](CC[C@@H]3[C@H]4[C@H]5OC[C@@]4(CCC5(C)C)CC[C@]32C)[C@@]1(C)CCCN` (field: growth) = 30.9

response.value for `COC(=O)[C@]12CC[C@@H](C)[C@H](C)[C@@H]1C1=CC(=O)[C@@H]3[C@@]4(C)C[C@@H](OC(C)=O)[C@H](OC(C)=O)[C@@](C)(COC(C)=O)[C@@H]4C(=O)C[C@@]3(C)[C@]1(C)CC2` (field: growth) = 82.6

response.value for `Cn1cc(-c2nc(-c3c[nH]c4ncccc34)cs2)c2cc(Cl)ccc21` (field: growth) = 47.8

response.value for `COc1cc(-c2cc3ncccc3c3nc(OCCN(C)C)c4cccnc4c23)cc(OC)c1OC` (field: growth) = 17.9

response.value for `CCCCC[C@H]1C/C=C2/C(=O)C(Cl)=C[C@@H]2C/C=C\CCCC(=O)O1` (field: growth) = -74.2

response.value for `Cn1cc(-c2nc(-c3cn(C)c4ncccc34)cs2)c2ccccc21` (field: growth) = 58.5

response.value for `CN(C)c1cccc2[nH]c(-c3[nH]ncc3Nc3ccnc(N)n3)nc12` (field: growth) = -13.6

response.value for `Fc1ccc2c(c1)c(-c1nc(-c3c[nH]c4ncccc34)cs1)cn2CCCN1CCCCC1` (field: growth) = 80.6

response.value for `O=C(/C=C/c1cccc(O)c1)c1ccccc1O` (field: growth) = 98.4

response.value for `Cn1cc(-c2csc(-c3c[nH]c4ccccc34)n2)c2cccnc21` (field: growth) = 56.1

response.value for COc1ccc(C2CC(=O)c3c(nc4ccc(Cl)cc4c3N)C2)cc1 (centres undefined) (field: growth) = 104

response.value for `COc1cc(-c2cc(-c3nc4cc(Cl)c(Cl)cc4[nH]3)[nH]n2)cc(OC)c1OC` (field: growth) = 92.3

response.value for `COc1c(N)c2c(c([N+](=O)[O-])c1OC)C(=O)OC2` (field: growth) = 99.8
